test-details: Inhibition of HCV NS3 protease by FRET assay
Set-up: species or system Hepacivirus hominis
measurement-kind: Ki (nM)

[P] CCC[C@H](NC(=O)[C@@H]1[C@H]2CCC[C@H]2CN1C(=O)[C@@H](NC(=O)[C@@H](NC(=O)c1cnccn1)C1CCCCC1)C(C)(C)C)C(=O)C(=O)NC1CC1
[Q] CC[C@@H]1C[C@]1(NC(=O)[C@@H]1C[C@@H]2CN1C(=O)[C@H](C(C)(C)C)NC(=O)OCC(C)(C)CCCCc1cccc3c1CN(C3)C(=O)O2)C(=O)NS(=O)(=O)C1CC1
Input: Of P and Q , whose reported Ki is the larger number? To answer, give the label that identifies your chosen option.
Output: P
(P: 40 nM, Q: 0.06 nM)

====

test-details: Inhibition of HCV NS3 protease by FRET assay
Set-up: species or system Hepacivirus hominis
measurement-kind: Ki (nM)
Quick note: give the figure in nM, leave out the unit.

Input: Need Ki, item COc1ccc2c(O[C@@H]3C[C@H]4C(=O)N[C@]5(C(=O)NS(=O)(=O)C6CC6)C[C@H]5/C=C\CCCCN(C)C(=O)[C@@H]4C3)cc(-c3nc(C(C)C)cs3)nc2c1C
Output: 0.36

Input: Moving on to the next molecule: C=CCCCS(=O)(=O)NC(=O)[C@H](CCC)NC(=O)[C@@H](NC(=O)[C@@H](NC(=O)OC(C)(C)C)C(C)(C)C)c1ccc(Oc2cc(-c3ccccc3)nc3cc(OC)ccc23)c(C=C)c1
Output: 63

Now for the molecule whose Ki we want.
Input: Recorded Ki of C=Cc1cc([C@@H](NC(=O)[C@@H](NC(=O)OC(C)(C)C)C(C)(C)C)C(=O)N[C@@H](CCC)C(=O)NS(=O)(=O)c2ccccc2C=C)ccc1Oc1cc(-c2ccccc2)nc2cc(OC)ccc12 , please.
Output: 47

====

test-details: Inhibition of HCV NS3 protease by FRET assay
Set-up: species or system Hepacivirus hominis
Listed here are compounds together with their documented pKi.
The scale used: pKi is minus the common logarithm of the concentration in molar units.

Input: Could you tell me which pKi is on file for C=CCC1(S(=O)(=O)NC(=O)[C@H](CCC)NC(=O)[C@@H](NC(=O)[C@@H](NC(=O)OC(C)(C)C)C(C)(C)C)c2ccc(Oc3cc(-c4ccccc4)nc4cc(OC)ccc34)c(C=C)c2)CC1 ?
Output: 6.48

Input: How about C=Cc1cc([C@H](NC(=O)[C@@H](NC(=O)OC(C)(C)C)C(C)(C)C)C(=O)N[C@@H](CCC)C(=O)NS(=O)(=O)c2ccccc2C=C)ccc1Oc1cc(-c2ccccc2)nc2cc(OC)ccc12 ?
Output: 6.92

---
Input: May I ask what pKi has been recorded for C=CCCCCS(=O)(=O)NC(=O)[C@H](CCC)NC(=O)[C@H](NC(=O)[C@@H](NC(=O)OC(C)(C)C)C(C)(C)C)c1ccc(Oc2cc(-c3ccccc3)nc3cc(OC)ccc23)c(C=C)c1 ?
Output: 7.00

====

As shown below, each of these molecules has a reported pKi value.
target-system: NS3 protease (Hepacivirus C, UniProt C1KIQ2, D168V)
test-details: Inhibition of HCV NS3 protease D168V mutant by FRET assay
Please note pKi is a logarithmic value: minus log10 of concentration in mol/L. Answer with that number alone.

Before answering, review these 4 worked examples.
Input: Could you tell me which pKi is on file for C=CCCCS(=O)(=O)NC(=O)[C@H](CCC)NC(=O)[C@H](NC(=O)[C@@H](NC(=O)OC(C)(C)C)C(C)(C)C)c1ccc(Oc2cc(-c3ccccc3)nc3cc(OC)ccc23)c(C=C)c1 ?
Output: 6.42

Input: Subsequent entry: C=CCCCCS(=O)(=O)NC(=O)[C@H](CCC)NC(=O)[C@@H](NC(=O)[C@@H](NC(=O)OC(C)(C)C)C(C)(C)C)c1ccc(Oc2cc(-c3ccccc3)nc3cc(OC)ccc23)c(C=C)c1
Output: 6.41

Input: And then C=Cc1cc([C@H](NC(=O)[C@@H](NC(=O)OC(C)(C)C)C(C)(C)C)C(=O)N[C@@H](CCC)C(=O)NS(=O)(=O)c2ccccc2C=C)ccc1Oc1cc(-c2ccccc2)nc2cc(OC)ccc12 , what is it?
Output: 6.35

Input: C=CCCCS(=O)(=O)NC(=O)[C@H](CCC)NC(=O)[C@@H](NC(=O)[C@@H](NC(=O)OC(C)(C)C)C(C)(C)C)c1ccc(Oc2cc(-c3ccccc3)nc3cc(OC)ccc23)c(C=C)c1 ?
Output: 6.85

Continuing:
Input: Name the reported pKi value associated with the molecule C=Cc1cc([C@@H](NC(=O)[C@@H](NC(=O)OC(C)(C)C)C(C)(C)C)C(=O)N[C@@H](CCC)C(=O)NS(=O)(=O)c2ccccc2C=C)ccc1Oc1cc(-c2ccccc2)nc2cc(OC)ccc12
Output: 6.64

Input: And for C=CCCCCS(=O)(=O)NC(=O)[C@H](CCC)NC(=O)[C@H](NC(=O)[C@@H](NC(=O)OC(C)(C)C)C(C)(C)C)c1ccc(Oc2cc(-c3ccccc3)nc3cc(OC)ccc23)c(C=C)c1 ?
Output: 6.28

====

target-system: NS3 protease (Hepatitis C virus subtype 1b, UniProt Q0ZMF1, A156T)
test-details: Inhibition of HCV NS3 protease A156T mutant by FRET assay
Parameters: species or system Hepacivirus hominis
Each entry below lists one item and its recorded Ki value.
Respond numerically; units are µM and should not be typed.

In the examples that follow, each entry is paired with its recorded Ki.
Input: Sample C=Cc1cc([C@@H](NC(=O)[C@@H](NC(=O)OC(C)(C)C)C(C)(C)C)C(=O)N[C@@H](CCC)C(=O)NS(=O)(=O)c2ccccc2C=C)ccc1Oc1cc(-c2ccccc2)nc2cc(OC)ccc12 — what was its Ki?
Output: 0.18

Input: Okay, and C=CCCCS(=O)(=O)NC(=O)[C@H](CCC)NC(=O)[C@H](NC(=O)[C@@H](NC(=O)OC(C)(C)C)C(C)(C)C)c1ccc(Oc2cc(-c3ccccc3)nc3cc(OC)ccc23)c(C=C)c1 ?
Output: 0.086

Input: Next: C=CCCCS(=O)(=O)NC(=O)[C@H](CCC)NC(=O)[C@@H](NC(=O)[C@@H](NC(=O)OC(C)(C)C)C(C)(C)C)c1ccc(Oc2cc(-c3ccccc3)nc3cc(OC)ccc23)c(C=C)c1
Output: 0.18

Input: Could you do the same for C=CCCCCS(=O)(=O)NC(=O)[C@H](CCC)NC(=O)[C@H](NC(=O)[C@@H](NC(=O)OC(C)(C)C)C(C)(C)C)c1ccc(Oc2cc(-c3ccccc3)nc3cc(OC)ccc23)c(C=C)c1 , please?
Output: 0.27

Input: Continue with C=Cc1cc([C@H](NC(=O)[C@@H](NC(=O)OC(C)(C)C)C(C)(C)C)C(=O)N[C@@H](CCC)C(=O)NS(=O)(=O)c2ccccc2C=C)ccc1Oc1cc(-c2ccccc2)nc2cc(OC)ccc12
Output: 0.25

Switching to the query record.
Input: Look up Ki: C=CCCCCS(=O)(=O)NC(=O)[C@H](CCC)NC(=O)[C@@H](NC(=O)[C@@H](NC(=O)OC(C)(C)C)C(C)(C)C)c1ccc(Oc2cc(-c3ccccc3)nc3cc(OC)ccc23)c(C=C)c1
Output: 0.38

====

test-details: Inhibition of HCV NS3 protease by FRET assay
Design: species or system Hepacivirus hominis
measurement-kind: Ki (nM)

Worked examples, 7 compounds total:
Input: Need Ki of C=CCC1(S(=O)(=O)NC(=O)[C@H](CCC)NC(=O)[C@H](NC(=O)[C@@H](NC(=O)OC(C)(C)C)C(C)(C)C)c2ccc(Oc3cc(-c4ccccc4)nc4cc(OC)ccc34)c(C=C)c2)CC1 , thanks.
Output: 190

Input: Queued: C=CCCCS(=O)(=O)NC(=O)[C@H](CCC)NC(=O)[C@H](NC(=O)[C@@H](NC(=O)OC(C)(C)C)C(C)(C)C)c1ccc(Oc2cc(-c3ccccc3)nc3cc(OC)ccc23)c(C=C)c1
Output: 48

Input: Here is the next compound: C=CCCCCS(=O)(=O)NC(=O)[C@H](CCC)NC(=O)[C@@H](NC(=O)[C@@H](NC(=O)OC(C)(C)C)C(C)(C)C)c1ccc(Oc2cc(-c3ccccc3)nc3cc(OC)ccc23)c(C=C)c1
Output: 120

Input: Please give the result for C=Cc1cc([C@@H](NC(=O)[C@@H](NC(=O)OC(C)(C)C)C(C)(C)C)C(=O)N[C@@H](CCC)C(=O)NS(=O)(=O)c2ccccc2)ccc1Oc1cc(-c2ccccc2)nc2cc(OC)ccc12 too.
Output: 130

Input: What do we get for C=Cc1cc([C@H](NC(=O)[C@@H](NC(=O)OC(C)(C)C)C(C)(C)C)C(=O)N[C@@H](CCC)C(=O)NS(=O)(=O)c2ccccc2)ccc1Oc1cc(-c2ccccc2)nc2cc(OC)ccc12 ?
Output: 290

Input: Another compound to look at: CCC[C@H](NC(=O)[C@@H](NC(=O)[C@@H](NC(=O)OC(C)(C)C)C(C)(C)C)c1ccc(Oc2cc(-c3ccccc3)nc3cc(OC)ccc23)cc1)C(=O)NS(=O)(=O)c1ccccc1
Output: 230

Input: // query: COc1ccc2c(O[C@@H]3C[C@H]4C(=O)N[C@]5(C(=O)O)C[C@H]5/C=C\CCCCC[C@H](NC(=O)OC5CCCC5)C(=O)N4C3)cc(-c3csc(NC(C)C)n3)nc2c1
Output: 0.3

[I] C=CCCCS(=O)(=O)NC(=O)[C@H](CCC)NC(=O)[C@@H]1C[C@@H](Oc2cc(-c3ccccc3)nc3cc(OC)ccc23)CN1C(=O)[C@@H](NC(=O)OC(C)(C)C)C(C)(C)C
[II] C=CCc1ccccc1S(=O)(=O)NC(=O)[C@H](CCC)NC(=O)[C@@H](NC(=O)[C@@H](NC(=O)OC(C)(C)C)C(C)(C)C)c1ccc(Oc2cc(-c3ccccc3)nc3cc(OC)ccc23)c(C=C)c1
[III] CC(C)(C)NC(=O)N[C@H](C(=O)N1C[C@H]2[C@@H]([C@H]1C(=O)NC(CC1CCC1)C(=O)C(N)=O)C2(C)C)C(C)(C)C (stereo not given in full)
Input: Arrange by Ki, high to low. To answer, arrange all of the labels according to the requested order.
Output: I, II, III
(I: 300 nM, II: 140 nM, III: 14 nM)
